Attribution: ChEMBL document CHEMBL1134975

pIC50: −log10 of the molar value.
Record: pIC50 reported on Nitric oxide synthase 1 (Homo sapiens, UniProt P29475).
Sequence (P29475 whole entry): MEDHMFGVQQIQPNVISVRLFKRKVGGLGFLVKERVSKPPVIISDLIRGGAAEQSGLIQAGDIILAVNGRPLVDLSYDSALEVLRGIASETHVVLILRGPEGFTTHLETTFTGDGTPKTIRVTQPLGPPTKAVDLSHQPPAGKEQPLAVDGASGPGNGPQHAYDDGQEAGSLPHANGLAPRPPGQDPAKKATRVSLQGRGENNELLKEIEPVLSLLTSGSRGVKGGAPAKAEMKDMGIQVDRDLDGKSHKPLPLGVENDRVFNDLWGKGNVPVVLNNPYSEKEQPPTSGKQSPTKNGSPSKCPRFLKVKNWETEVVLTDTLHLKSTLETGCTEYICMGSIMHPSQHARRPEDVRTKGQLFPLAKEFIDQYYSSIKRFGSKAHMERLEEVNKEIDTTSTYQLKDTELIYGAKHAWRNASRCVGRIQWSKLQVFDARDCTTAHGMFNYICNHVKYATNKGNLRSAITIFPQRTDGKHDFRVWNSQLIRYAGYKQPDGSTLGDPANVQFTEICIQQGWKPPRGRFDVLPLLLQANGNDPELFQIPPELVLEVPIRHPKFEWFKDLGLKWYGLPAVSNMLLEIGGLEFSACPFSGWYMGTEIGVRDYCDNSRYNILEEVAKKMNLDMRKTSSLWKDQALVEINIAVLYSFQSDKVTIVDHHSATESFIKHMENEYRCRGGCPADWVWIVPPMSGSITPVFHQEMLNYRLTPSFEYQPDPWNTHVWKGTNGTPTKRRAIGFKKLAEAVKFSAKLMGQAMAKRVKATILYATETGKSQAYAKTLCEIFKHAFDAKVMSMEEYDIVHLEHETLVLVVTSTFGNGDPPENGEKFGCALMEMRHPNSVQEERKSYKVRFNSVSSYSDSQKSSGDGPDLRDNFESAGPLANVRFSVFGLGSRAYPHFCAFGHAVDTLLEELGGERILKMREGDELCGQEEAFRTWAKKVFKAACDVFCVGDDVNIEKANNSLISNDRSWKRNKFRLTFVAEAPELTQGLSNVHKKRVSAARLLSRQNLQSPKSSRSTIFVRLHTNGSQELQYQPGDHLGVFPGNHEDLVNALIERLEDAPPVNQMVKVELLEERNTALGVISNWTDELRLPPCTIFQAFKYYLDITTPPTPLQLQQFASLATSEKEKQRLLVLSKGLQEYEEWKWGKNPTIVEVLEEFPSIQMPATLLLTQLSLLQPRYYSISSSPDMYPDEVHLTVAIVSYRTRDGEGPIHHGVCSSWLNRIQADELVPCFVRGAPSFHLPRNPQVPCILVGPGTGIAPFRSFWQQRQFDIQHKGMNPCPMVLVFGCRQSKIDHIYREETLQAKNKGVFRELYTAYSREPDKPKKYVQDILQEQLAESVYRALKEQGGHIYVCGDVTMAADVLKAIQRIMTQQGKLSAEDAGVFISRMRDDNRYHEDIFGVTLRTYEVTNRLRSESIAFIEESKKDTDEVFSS
reported_endpoint: pIC50

smiles_repr: CCCCC[C@H]1NC(=N)C[C@H]1C
reported_endpoint: pIC50
result_number: 5.49
--
smiles_repr: CCCCC[C@H]1NC(=N)[C@@H](O)[C@H]1C
reported_endpoint: pIC50
result_number: 4.57
--
smiles_repr: CCCCC[C@@H]1N=C(N)[C@@H](O)[C@@H]1C
reported_endpoint: pIC50
result_number: 4.70

---

- study_system: Nitric oxide synthase 3 (Homo sapiens)
- Sequence (P29474 whole entry): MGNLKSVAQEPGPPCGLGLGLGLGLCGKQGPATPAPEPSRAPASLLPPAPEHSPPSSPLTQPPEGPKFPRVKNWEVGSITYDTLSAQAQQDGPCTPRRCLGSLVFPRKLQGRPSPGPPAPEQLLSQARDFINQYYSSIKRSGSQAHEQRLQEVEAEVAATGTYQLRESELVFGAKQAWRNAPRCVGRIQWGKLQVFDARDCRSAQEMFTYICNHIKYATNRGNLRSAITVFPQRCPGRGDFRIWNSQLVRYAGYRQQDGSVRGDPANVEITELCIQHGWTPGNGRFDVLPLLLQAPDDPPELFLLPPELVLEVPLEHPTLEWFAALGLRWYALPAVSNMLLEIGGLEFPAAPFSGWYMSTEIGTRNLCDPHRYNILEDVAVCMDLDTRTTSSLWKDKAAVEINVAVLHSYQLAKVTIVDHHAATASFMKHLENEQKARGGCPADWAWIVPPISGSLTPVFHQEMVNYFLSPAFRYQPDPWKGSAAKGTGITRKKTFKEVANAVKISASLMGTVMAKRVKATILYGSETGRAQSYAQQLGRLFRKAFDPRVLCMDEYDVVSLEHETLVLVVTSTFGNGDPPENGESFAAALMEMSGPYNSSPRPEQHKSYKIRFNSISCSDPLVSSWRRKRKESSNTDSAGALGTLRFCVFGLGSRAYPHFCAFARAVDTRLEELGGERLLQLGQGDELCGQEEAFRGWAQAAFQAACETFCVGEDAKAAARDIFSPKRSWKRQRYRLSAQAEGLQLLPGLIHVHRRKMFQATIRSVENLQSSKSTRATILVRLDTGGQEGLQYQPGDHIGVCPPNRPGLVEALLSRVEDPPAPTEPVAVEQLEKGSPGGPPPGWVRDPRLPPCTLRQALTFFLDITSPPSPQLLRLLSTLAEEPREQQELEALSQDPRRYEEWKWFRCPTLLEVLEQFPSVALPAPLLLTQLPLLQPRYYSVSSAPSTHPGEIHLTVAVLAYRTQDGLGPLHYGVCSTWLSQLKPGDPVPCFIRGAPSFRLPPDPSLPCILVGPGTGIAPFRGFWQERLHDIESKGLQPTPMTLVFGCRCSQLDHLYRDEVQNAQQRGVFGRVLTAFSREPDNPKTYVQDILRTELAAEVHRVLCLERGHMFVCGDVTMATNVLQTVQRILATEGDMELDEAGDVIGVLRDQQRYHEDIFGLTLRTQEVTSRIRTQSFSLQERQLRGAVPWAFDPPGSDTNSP
- assay_notes: Inhibitory concentration against Endothelial nitric oxide synthase
pIC50: −log10 of the molar value.

smiles_repr: CCCCC[C@H]1N=C(N)[C@H](O)[C@H]1C
pIC50: 3.16
//
smiles_repr: CCCCC[C@@H]1N=C(N)[C@@H](O)[C@@H]1C
pIC50: 3.03
//
smiles_repr: CCCCC[C@@H]1N=C(N)[C@H](O)[C@@H]1C
pIC50: 2.53

---

Record: IC50 reported on Nitric oxide synthase, inducible (Homo sapiens, UniProt P35228).
Sequence (P35228 whole entry): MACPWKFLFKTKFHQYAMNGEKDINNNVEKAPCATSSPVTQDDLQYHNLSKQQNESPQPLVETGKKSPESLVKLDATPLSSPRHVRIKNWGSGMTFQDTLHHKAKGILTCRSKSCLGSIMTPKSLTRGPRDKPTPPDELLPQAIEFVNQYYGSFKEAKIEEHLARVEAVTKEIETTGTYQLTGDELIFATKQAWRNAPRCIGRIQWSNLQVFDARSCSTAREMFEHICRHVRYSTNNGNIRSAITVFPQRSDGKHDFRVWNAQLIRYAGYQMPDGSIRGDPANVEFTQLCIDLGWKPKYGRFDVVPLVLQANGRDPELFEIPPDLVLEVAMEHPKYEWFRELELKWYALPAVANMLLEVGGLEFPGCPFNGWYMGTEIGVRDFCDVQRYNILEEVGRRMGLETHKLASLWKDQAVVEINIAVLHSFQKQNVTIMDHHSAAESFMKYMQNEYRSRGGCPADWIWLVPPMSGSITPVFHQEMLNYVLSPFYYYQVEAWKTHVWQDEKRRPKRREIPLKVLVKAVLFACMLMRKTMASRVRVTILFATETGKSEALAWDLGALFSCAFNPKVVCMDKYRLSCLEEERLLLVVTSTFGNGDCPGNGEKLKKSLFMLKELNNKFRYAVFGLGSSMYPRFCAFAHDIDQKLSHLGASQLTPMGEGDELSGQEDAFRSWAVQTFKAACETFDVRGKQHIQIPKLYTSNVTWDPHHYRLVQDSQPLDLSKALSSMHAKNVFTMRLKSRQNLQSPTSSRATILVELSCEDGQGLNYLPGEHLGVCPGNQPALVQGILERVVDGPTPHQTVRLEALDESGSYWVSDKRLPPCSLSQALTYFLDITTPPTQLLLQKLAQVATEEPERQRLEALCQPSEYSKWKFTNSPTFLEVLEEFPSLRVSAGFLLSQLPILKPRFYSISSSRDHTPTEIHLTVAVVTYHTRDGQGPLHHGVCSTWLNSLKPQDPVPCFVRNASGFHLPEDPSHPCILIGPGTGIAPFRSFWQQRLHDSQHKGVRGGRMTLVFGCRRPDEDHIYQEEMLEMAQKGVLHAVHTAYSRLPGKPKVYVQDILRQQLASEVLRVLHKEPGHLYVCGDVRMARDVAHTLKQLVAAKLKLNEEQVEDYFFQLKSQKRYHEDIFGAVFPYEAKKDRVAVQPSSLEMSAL

smiles_repr: CCCCC[C@H]1NC(=N)[C@@H](O)[C@H]1C
IC50, nM: 780
--
smiles_repr: CCCCC[C@@H]1N=C(N)[C@@H](O)[C@@H]1C
IC50, nM: 1800
--
smiles_repr: CCCCC[C@H]1NC(=N)C[C@H]1C
IC50, nM: 250
